Measured inhibition, listed per entry for reference.
- Subject Of Test: Protein-arginine deiminase type-4 (Homo sapiens) (UniProt Q9UM07)
- Sequence (Q9UM07 whole entry, looked up): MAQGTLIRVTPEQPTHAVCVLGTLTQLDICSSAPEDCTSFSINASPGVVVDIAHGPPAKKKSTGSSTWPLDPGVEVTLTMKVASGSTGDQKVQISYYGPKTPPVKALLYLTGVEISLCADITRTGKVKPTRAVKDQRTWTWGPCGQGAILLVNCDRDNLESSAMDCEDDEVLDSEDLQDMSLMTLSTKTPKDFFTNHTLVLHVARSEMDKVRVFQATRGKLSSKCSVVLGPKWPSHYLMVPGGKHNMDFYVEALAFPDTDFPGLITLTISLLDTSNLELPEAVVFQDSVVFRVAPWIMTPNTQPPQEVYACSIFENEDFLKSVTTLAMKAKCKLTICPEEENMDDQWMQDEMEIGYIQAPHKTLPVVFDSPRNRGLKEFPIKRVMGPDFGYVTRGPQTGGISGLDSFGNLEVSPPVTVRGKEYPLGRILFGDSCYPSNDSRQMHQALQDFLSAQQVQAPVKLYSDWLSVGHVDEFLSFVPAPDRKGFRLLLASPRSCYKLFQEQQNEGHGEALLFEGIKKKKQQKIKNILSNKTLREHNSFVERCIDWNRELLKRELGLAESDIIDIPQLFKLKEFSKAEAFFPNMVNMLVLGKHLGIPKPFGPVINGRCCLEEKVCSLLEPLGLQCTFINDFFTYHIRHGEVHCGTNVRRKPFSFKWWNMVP
- Test Method Notes: protein arginine deiminase 4 enzyme blockade – biochemical, fluorescence polarization, 1536-well format, primary screen (AID 485272);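 further: 0% = PAD4 with RCA probe and DMSO and 100% = probe without PAD4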
- Experimental Setup: recombinant PAD4, RCA probe fluorescence polarization; at 6.36 µM; stronger effect = higher value
Out of some 330,000 compounds screened, about 1,300 (0.39%) were called active. This is one part of a sample in which actives are shown more often than they occur.

{"Compound": "C[N+](C)(C)CCOP(=O)([O-])OC[C@H](O)CO", "inhibition": "0.71% (inactive)"}
{"Compound": "COc1ccc(S(=O)(=O)N2CCOCC2)cc1NC(=O)COc1ccccc1", "inhibition": "6.68% (inactive)"}
{"Compound": "CC(C)C(=O)NC(=S)Nc1ccccc1F", "inhibition": "5.01% (inactive)"}
{"Compound": "O=C(NCC1CCCO1)c1ccc2ccccc2n1 (stereo unspecified)", "inhibition": "0.05% (inactive)"}
{"Compound": "CC(C)(C)NC(=O)/C(=C/c1cccnc1)NC(=O)c1ccco1", "inhibition": "0.75% (inactive)"}
{"Compound": "COc1ccc2cc(C(=O)NCC3CCCO3)[nH]c2c1 (stereo unspecified)", "inhibition": "-4.37% (inactive)"}
{"Compound": "COc1ccc(S(=O)(=O)N2CCOCC2)cc1NC(=O)CSc1nnc(NC2CC2)s1", "inhibition": "-2.8% (inactive)"}
{"Compound": "O=C(O)c1ccc(COc2c(F)c(F)cc(F)c2F)o1", "inhibition": "-4.92% (inactive)"}
{"Compound": "COc1ccc(/C=C(\\NC(=O)c2ccc(OCC(C)C)cc2)C(=O)OCc2ccco2)cc1", "inhibition": "1.51% (inactive)"}
{"Compound": "CCOc1ccc(NS(=O)(=O)c2ccc(Cl)c(C(=O)N(C)Cc3cccnc3)c2)cc1", "inhibition": "6.71% (inactive)"}
{"Compound": "O=C(Nc1ccc([N+](=O)[O-])cc1)C1(c2ccccc2)CCOCC1", "inhibition": "-2.28% (inactive)"}
